Assay: Selectivity index, ratio of CC50 for human MT4 cells to EC50 for reverse transcriptase Y181C mutant in human MT4 cells infected HIV1 3B
Settings: MT4 cells
result_type: selectivity ratio

Solved cases (6 shown):
compound	result_type	recorded_result
Cc1cc(C#N)cc(C)c1Oc1nc(NC2CCN(Cc3cccc(C(N)=O)c3)CC2)nc2sccc12	selectivity ratio	> 5300
Cc1cc(C#N)cc(C)c1Oc1nc(NC2CCC(NCc3ccc([N+](=O)[O-])cc3)CC2)nc2ccsc12 (configuration not stated)	selectivity ratio	≤ 2
CCOC(=O)c1ccc(CN2CCC(Nc3nc(Oc4c(C)cc(C#N)cc4C)c4ccsc4n3)CC2)cc1	selectivity ratio	> 207
Cc1cc(C#N)cc(C)c1Oc1nc(NC2CCC(NCc3ccc(O)cc3)CC2)nc2ccsc12 (configuration not stated)	selectivity ratio	< 1
Cc1cc(C#N)cc(C)c1Oc1nc(NC2CCN(Cc3ccc(S(N)(=O)=O)cc3)CC2)nc2ccsc12	selectivity ratio	> 70000
Cc1cc(C#N)cc(C)c1Oc1nc(NC2CCC(NCc3ccccc3)CC2)nc2ccsc12 (configuration not stated)	selectivity ratio	< 1

Now look at this one.
Request: Which selectivity ratio value belongs to Cc1cc(C#N)cc(C)c1Oc1nc(NC2CCC(NCc3cccc(C(F)(F)F)c3)CC2)nc2ccsc12 (configuration not stated) ?
Result: < 1
